biological target: Gal4-hRORγ (Homo sapiens); construct: Encodes for a hRORγ-LBD:Gal4-DBD fusion protein; expressed in transfected cells; host or cells: HEK293; test: Gal4-RORγ mammalian one-hybrid luciferase assay; type: cell-based; details: HEK293 cells, 5 μM
Sequence (P51449 269-508 limits assumed): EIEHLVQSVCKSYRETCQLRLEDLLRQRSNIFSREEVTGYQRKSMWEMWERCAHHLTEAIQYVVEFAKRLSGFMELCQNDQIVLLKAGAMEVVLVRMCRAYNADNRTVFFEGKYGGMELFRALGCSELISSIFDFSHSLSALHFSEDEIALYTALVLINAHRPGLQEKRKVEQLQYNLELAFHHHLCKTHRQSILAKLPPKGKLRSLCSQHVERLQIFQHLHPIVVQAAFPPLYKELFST
quantity-kind: Imax(%) at 5 μM, Gal4-RORγ luciferase assay
Numbers only here, please. The scale is %.

Recorded Imax(%) at 5 μM, Gal4-RORγ luciferase assay, per entry:
[
  {
    "compound": "C=C(C)[C@@H]1CC[C@]2(C(=O)O)CC[C@]3(C)[C@H](CC[C@@H]4[C@@]5(C)C/C(=C\\c6ccccc6OC)C(=O)C(C)(C)[C@@H]5CC[C@]43C)[C@@H]12 [Compound 15.1]",
    "assay-value": 34
  },
  {
    "compound": "C=C(C)[C@@H]1CC[C@]2(C(=O)O)CC[C@]3(C)[C@H](CC[C@@H]4[C@@]5(C)C/C(=C/c6ccccc6)C(=O)C(C)(C)[C@@H]5CC[C@]43C)[C@@H]12 [Compound 15.3]",
    "assay-value": 53
  },
  {
    "compound": "C=C(C)[C@@H]1CC[C@]2(C(=O)O)CC[C@]3(C)[C@H](CC[C@@H]4[C@@]5(C)C/C(=C/c6ccco6)C(=O)C(C)(C)[C@@H]5CC[C@]43C)[C@@H]12 [Compound 15]",
    "assay-value": 76
  },
  {
    "compound": "C=C(C)[C@@H]1CC[C@]2(C(=O)O)CC[C@]3(C)[C@H](CC[C@@H]4[C@@]5(C)CC[C@H](O)C(C)(C)[C@@H]5CC[C@]43C)[C@@H]12 [Betulinic acid, reference compound]",
    "assay-value": 47
  },
  {
    "compound": "C=C(C)[C@@H]1CC[C@]2(C(=O)O)CC[C@]3(C)[C@H](CC[C@@H]4[C@@]5(C)C/C(=C/c6cccc(I)c6)C(=O)C(C)(C)[C@@H]5CC[C@]43C)[C@@H]12 [Compound 15.2]",
    "assay-value": 58
  }
]

Proceed to the following item.
Imax(%) at 5 μM, Gal4-RORγ luciferase assay reading for C=C(C)[C@@H]1CC[C@]2(C(=O)OC)CC[C@]3(C)[C@H](CC[C@@H]4[C@@]5(C)C/C(=C/c6ccco6)C(=O)C(C)(C)[C@@H]5CC[C@]43C)[C@@H]12 [Compound 15.4] : 0
